Below, each of the compounds is paired with its reported pIC50 value.
Measured Target: EGFR L858R (Homo sapiens (Human), UniProt P00533, L858R)
Sequence (P00533 25-1210 L858R): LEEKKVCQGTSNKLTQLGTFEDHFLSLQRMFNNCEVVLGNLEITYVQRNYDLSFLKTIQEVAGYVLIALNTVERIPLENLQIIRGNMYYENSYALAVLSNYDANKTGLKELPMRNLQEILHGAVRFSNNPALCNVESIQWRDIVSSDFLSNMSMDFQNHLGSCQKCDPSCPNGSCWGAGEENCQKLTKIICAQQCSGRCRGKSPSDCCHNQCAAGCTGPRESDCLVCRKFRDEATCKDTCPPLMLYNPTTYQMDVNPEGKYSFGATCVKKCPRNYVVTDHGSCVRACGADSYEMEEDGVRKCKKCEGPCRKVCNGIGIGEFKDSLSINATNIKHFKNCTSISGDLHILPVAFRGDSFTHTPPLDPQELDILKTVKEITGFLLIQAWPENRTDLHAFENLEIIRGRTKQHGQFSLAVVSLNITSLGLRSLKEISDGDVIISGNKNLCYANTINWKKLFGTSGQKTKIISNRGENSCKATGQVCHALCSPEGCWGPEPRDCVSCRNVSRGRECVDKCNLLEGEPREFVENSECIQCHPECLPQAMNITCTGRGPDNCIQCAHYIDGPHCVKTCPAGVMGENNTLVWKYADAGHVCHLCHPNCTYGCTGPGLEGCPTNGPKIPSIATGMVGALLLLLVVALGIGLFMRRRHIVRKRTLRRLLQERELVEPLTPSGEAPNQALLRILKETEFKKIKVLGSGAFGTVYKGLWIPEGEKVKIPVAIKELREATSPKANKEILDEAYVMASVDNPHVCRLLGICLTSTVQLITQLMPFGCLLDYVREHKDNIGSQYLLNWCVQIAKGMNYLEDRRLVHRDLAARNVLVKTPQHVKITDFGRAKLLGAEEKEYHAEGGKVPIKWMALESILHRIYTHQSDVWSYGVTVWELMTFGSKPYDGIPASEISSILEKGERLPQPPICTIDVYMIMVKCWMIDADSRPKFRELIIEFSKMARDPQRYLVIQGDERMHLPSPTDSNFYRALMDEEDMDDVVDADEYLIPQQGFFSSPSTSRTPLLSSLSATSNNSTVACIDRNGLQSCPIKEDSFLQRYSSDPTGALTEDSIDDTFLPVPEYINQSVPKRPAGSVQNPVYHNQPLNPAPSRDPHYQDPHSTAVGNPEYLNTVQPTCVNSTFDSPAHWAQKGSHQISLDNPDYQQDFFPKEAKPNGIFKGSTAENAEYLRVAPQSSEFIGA
Test Details: Biochemical EGFR inhibition assay, EGFR L858R
Run Parameters: Caliper mobility shift; 1.0 mM ATP or ATP Km; read-out: Enz EGFR_L858R IC50
pIC50: −log10 of the molar value.
Endpoint Name: pIC50

{"columns": ["Compound", "Endpoint Name", "Number"],
 "data": [
  ["COc1cc2ncnc(-c3cn(C)nc3-c3ccccc3)c2cc1OC(=O)N1CCOC(C)(C)C1 [Example 80]", "pIC50", 8.22],
  ["COc1cc2ncnc(-c3cn(C)nc3-c3ccccc3)c2cc1NC(=O)N1CCN(C)[C@@H](C)[C@H]1C (single isomer, unassigned) [Example 180]", "pIC50", 8.42],
  ["COc1cc2ncnc(-c3cn(C)nc3-c3ccccc3)c2cc1NC(=O)c1ccccc1F [Example 198]", "pIC50", 8.89],
  ["COc1cc2ncnc(-c3cn(C)nc3-c3ccccc3)c2cc1NC(=O)c1ncccn1 [Example 192]", "pIC50", 8.96]
]}

Entry source: patent US20250236608A1
